Give log10 IC50 for every item shown.
target: Estrogen receptor (Homo sapiens, UniProt P03372); experiment: Induction of ERalpha degradation in human MCF7 cells assessed as decrease in ER-alpha level incubated for 18 to 24 hrs by Alexa fluor 488/Hoechst staining based immunofluorescence imaging analysis; format: cell-based
Sequence (P03372 whole entry): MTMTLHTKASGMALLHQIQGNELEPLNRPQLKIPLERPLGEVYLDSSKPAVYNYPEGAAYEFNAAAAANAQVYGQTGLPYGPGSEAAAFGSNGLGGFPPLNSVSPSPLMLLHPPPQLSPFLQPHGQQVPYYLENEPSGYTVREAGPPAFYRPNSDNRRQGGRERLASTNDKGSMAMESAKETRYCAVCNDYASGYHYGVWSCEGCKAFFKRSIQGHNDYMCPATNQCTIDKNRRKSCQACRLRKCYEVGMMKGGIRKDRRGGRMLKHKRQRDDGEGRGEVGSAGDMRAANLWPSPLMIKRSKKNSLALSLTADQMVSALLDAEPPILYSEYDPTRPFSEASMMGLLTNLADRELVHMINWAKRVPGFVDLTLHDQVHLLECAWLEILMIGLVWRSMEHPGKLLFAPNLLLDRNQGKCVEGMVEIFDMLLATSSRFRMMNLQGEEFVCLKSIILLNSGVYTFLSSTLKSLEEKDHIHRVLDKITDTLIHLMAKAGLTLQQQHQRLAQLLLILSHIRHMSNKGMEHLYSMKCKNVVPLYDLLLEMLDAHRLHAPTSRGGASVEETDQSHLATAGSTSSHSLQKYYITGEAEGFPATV
The common logarithm of IC50 in nM is what is listed.

Record excerpt, results attached:
[[record]]
compound_smiles = "C[C@@H]1Cc2c(ccc3[nH]ncc23)[C@@H](c2ccc(NC3CN(CCCF)C3)cn2)N1CC(F)F"
reported_result = -0.50

[[record]]
compound_smiles = "COc1cc(NC2CN(CCCF)C2)ccc1[C@@H]1c2ccc3[nH]ncc3c2C[C@@H](C)N1CC(F)(F)CO"
reported_result = -0.70


Provide the reported log10 IC50 of each entry below, same order.
1. C[C@@H]1Cc2c(ccc3[nH]ncc23)[C@@](C)(c2ccc(NC3CN(CCCF)C3)cn2)N1CC(F)F
2. C[C@@H]1Cc2c(ccc3[nH]ncc23)[C@@H](c2ccc(N[C@H]3CCN(CCCF)C3)cn2)N1CC(F)(F)F
3. C[C@@H]1Cc2c(ccc3[nH]ncc23)[C@@H](c2ccc(OCCN3CC(CF)C3)cn2)N1CC(F)F
4. C[C@@H]1Cc2c(ccc3[nH]ncc23)[C@@H](c2ccc(O[C@H]3CCN(CCCF)C3)cn2)N1CC(F)(F)F
5. COc1cc(OCCN2CC(CF)C2)ccc1[C@@H]1c2ccc3[nH]ncc3c2C[C@@H](C)N1CC1(F)CC1

Response:
1: 0.00; 2: -0.90; 3: -0.30; 4: -0.40; 5: -0.90

---

experiment: Clearance in mouse at 2 mg/kg, iv or 5 mg/kg, po; type: ADME, organism-based; settings: in vivo
measure: clearance (mL/min/kg)
One number for each entry, in mL/min/kg.

In plain terms, C[C@@H]1Cc2c(ccc3[nH]ncc23)[C@@H](c2ccc(NC3CN(CCCF)C3)cn2)N1CC(F)(F)F has a documented clearance of 59

---

test: Dissociation constant, dibasic pKa of compound in 0.1 M potassium chloride in presence of azetidine by UV-vis spectroscopy; type: physicochemical
measure: pKa
Give bare numbers.

[[record]]
compound_smiles = "COc1cc(NC2CN(CCCF)C2)ccc1[C@@H]1c2ccc3[nH]ncc3c2C[C@@H](C)N1CC1(F)CC1"
measure = "pKa"
reported_result = 8.7


Then there is this molecule:
In plain terms, C[C@@H]1Cc2c(ccc3[nH]ncc23)[C@@H](c2ccc(NC3CN(CCCF)C3)cn2)N1CC(F)(F)F has a documented pKa of 8.4

---

biological target: Estrogen receptor (Homo sapiens) (UniProt P03372); test: Induction of ERalpha degradation in human MCF7 cells assessed as maximum degradation incubated for 18 to 24 hrs by Alexa fluor 488/Hoechst staining based immunofluorescence imaging analysis relative to fulvestrant; type: cell-based; conditions: time lower […], time upper […]
Sequence (P03372 whole entry): as the sequence (P03372 whole entry) above
Give Emax for every item shown.
Numbers only, in %.

Provide the reported Emax of each entry below, same order.
1. COc1cc(OCCNCCCF)ccc1[C@@H]1c2ccc3[nH]ncc3c2C[C@@H](C)N1CC1(F)CC1
2. C[C@@H]1Cc2c(ccc3[nH]ncc23)[C@@](C)(c2ccc(NC3CN(CCCF)C3)cn2)N1CC(F)F

Response:
1: 82; 2: 96

---

target: UniProt P03372; experiment: Induction of ERalpha degradation in human MCF7 cells assessed as decrease in ER-alpha level at 0.1 uM by Western blot analysis relative to fulvestrant; type: cell-based; set-up: scale not given: the % may be the effect or the level left
measure: Activity (%)
One number for each entry, in %.

[[record]]
compound_smiles = "COc1cc(OCCN2CC(CF)C2)ccc1[C@@H]1c2ccc3[nH]ncc3c2C[C@@H](C)N1CC(C)C"
reported_result = 94

[[record]]
compound_smiles = "C[C@@H]1Cc2c(ccc3[nH]ncc23)[C@@H](c2ccc(NC3CN(CCCF)C3)cn2)N1CC(F)(F)CO"
reported_result = 104


Then there is this compound:
In plain terms, COc1cc(OC2CN(CCCF)C2)ccc1[C@@H]1c2ccc3[nH]ncc3c2C[C@@H](C)N1CC1(F)CC1 has a documented Activity of 90

---

assay: Solubility of compound in phosphate buffer at pH 7.4 using crystalline form of sample; format: physicochemical
measure: solubility thermodynamic (µg/mL)
Answers are plain numbers, in µg/mL.

In plain terms, C[C@@H]1Cc2c(ccc3[nH]ncc23)[C@@H](c2ccc(NC3CN(CCCF)C3)cn2)N1CC(F)(F)F has a documented solubility thermodynamic of 400

---

assay: Fraction unbound in mouse plasma; type: ADME, cell-free
measure: fraction unbound
One number for each entry.

[[record]]
compound_smiles = "COc1cc(NC2CN(CCCF)C2)ccc1[C@@H]1c2ccc3[nH]ncc3c2C[C@@H](C)N1CC1(F)CC1"
reported_result = 0.39


Then there is this molecule:
In plain terms, C[C@@H]1Cc2c(ccc3[nH]ncc23)[C@@H](c2ccc(NC3CN(CCCF)C3)cn2)N1CC(F)(F)F has a documented fraction unbound of 0.23

---

assay: Intrinsic clearance in rat hepatocytes assessed per million cells; assay type: ADME, cell-based, Hepatocyte; settings: read-out: CLH
measure: hepatocyte CLint (µL/min/1e6 cells)
Give bare numbers, in µL/min/1e6 cells.

Record excerpt, results attached:
[[record]]
compound_smiles = "C[C@@H]1Cc2c(ccc3[nH]ncc23)[C@@H](c2ccc(NC3CN(CCCF)C3)cn2)N1CC(F)(F)F"
reported_result = 23

[[record]]
compound_smiles = "C[C@@H]1Cc2c(ccc3[nH]ncc23)[C@@](C)(c2ccc(NC3CN(CCCF)C3)cn2)N1CC(F)F"
reported_result = 114

[[record]]
compound_smiles = "COc1cc(OCCN2CC(CF)C2)ccc1[C@@H]1c2ccc3[nH]ncc3c2C[C@@H](C)N1CC(C)C"
reported_result = 9

[[record]]
compound_smiles = "C[C@@H]1Cc2c(ccc3[nH]ncc23)[C@@H](c2ccc(NC3CN(CCCF)C3)cn2)N1CC1(F)CC1"
reported_result = 24

[[record]]
compound_smiles = "COc1cc(OCCNCCCF)ccc1[C@@H]1c2ccc3[nH]ncc3c2C[C@@H](C)N1CC1(F)CC1"
reported_result = 9

[[record]]
compound_smiles = "CC1(C)Cc2c(ccc3[nH]ncc23)[C@@H](c2ccc(NC3CN(CCCF)C3)cn2)N1CC(F)F"
reported_result = 270


Provide the reported hepatocyte CLint of each entry below, same order.
1. C[C@@H]1Cc2c(ccc3[nH]ncc23)[C@@H](c2ccc(NC3CN(CCCF)C3)cn2)N1CC(C)(C)F
2. C[C@@H]1Cc2c(ccc3[nH]ccc23)[C@@H](c2ccc(NC3CN(CCCF)C3)cn2)N1CC(F)(F)F

Response:
26
10

---

assay: Fraction absorbed in mouse at 2 mg/kg, iv or 5 mg/kg, po; type: ADME, organism-based; details: in vivo, read-out: Fabs
measure: Fa (%)
Give bare numbers, in %.

In plain terms, C[C@@H]1Cc2c(ccc3[nH]ncc23)[C@@H](c2ccc(NC3CN(CCCF)C3)cn2)N1CC(F)(F)F has a documented Fa of 50

---

target: Cytochrome P450 3A4 (Homo sapiens); test: Inhibition of CYP3A4 in human liver microsomes; assay type: ADME
Sequence (P08684 whole entry): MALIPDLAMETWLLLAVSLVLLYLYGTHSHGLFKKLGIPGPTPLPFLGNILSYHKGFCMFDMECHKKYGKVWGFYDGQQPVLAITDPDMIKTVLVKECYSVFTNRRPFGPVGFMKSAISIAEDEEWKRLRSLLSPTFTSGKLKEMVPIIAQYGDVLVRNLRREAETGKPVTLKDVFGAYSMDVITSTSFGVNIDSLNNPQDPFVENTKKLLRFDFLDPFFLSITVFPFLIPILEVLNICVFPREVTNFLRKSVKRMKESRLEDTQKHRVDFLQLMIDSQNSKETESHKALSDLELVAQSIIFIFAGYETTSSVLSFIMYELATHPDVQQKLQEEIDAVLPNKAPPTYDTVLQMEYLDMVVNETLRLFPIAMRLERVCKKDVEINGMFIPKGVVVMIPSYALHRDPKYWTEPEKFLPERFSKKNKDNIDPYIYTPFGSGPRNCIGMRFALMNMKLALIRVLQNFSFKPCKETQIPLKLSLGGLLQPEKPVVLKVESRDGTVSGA
measure: IC50 (µM)
Numbers only, in µM.

In plain terms, C[C@@H]1Cc2c(ccc3[nH]ncc23)[C@@H](c2ccc(NC3CN(CCCF)C3)cn2)N1CC(F)(F)F has a documented IC50 of 2.2

---

assay: Stability of compound at 60 degC and ambient dry condition assessed parent compound remaining measured 2 weeks using amorphous form of sample by chromatographic method; type: physicochemical; details: solid sample, read-out: Stabilty
measure: remaining at 336 h (%)
One number for each entry, in %.

In plain terms, C[C@@H]1Cc2c(ccc3[nH]ncc23)[C@@H](c2ccc(NC3CN(CCCF)C3)cn2)N1CC(F)(F)F has a documented remaining at 336 h of 98.4

---

Give Emax for every item shown.
target: Estrogen receptor (Homo sapiens); assay: Induction of ERalpha degradation in human MCF7 cells assessed as maximum degradation incubated for 18 to 24 hrs by Alexa fluor 488/Hoechst staining based immunofluorescence imaging analysis relative to fulvestrant; assay type: cell-based; details: time lower […], time upper […]
I'd appreciate it if you wrote the number followed by its unit.

Provide the reported Emax of each entry below, same order.
1. COc1cc(NC2CN(CCCF)C2)ccc1[C@@H]1c2ccc3[nH]ncc3c2C[C@@H](C)N1CC(C)(C)F
2. COc1cc(OCCN2CC(CF)C2)ccc1[C@@H]1c2ccc3[nH]ncc3c2C[C@@H](C)N1CC1(F)CC1
3. COc1cc(NC2CN(CCCF)C2)ccc1[C@@H]1c2ccc3[nH]ncc3c2C[C@@H](C)N1CC(F)(F)F

Response:
96%
96%
98%

Provide the reported Emax of each entry below, same order.
1. C[C@@H]1Cc2c(ccc3[nH]ncc23)[C@@H](c2ccc(NCCNCCCF)cn2)N1CC(F)(F)F
2. C[C@@H]1Cc2c(ccc3[nH]ncc23)[C@@H](c2ccc(NC3CN(CCCF)C3)cn2)N1CC(F)F
3. COc1cc(OC2CN(CCCF)C2)ccc1[C@@H]1c2ccc3[nH]ncc3c2C[C@@H](C)N1CC1(F)CC1
4. C[C@@H]1Cc2c(ccc3[nH]ncc23)[C@@H](c2ccc(OCCN3CC(CF)C3)cn2)N1CC(F)F
5. C[C@@H]1Cc2c(ccc3[nH]ncc23)[C@@H](c2ccc(N(C)[C@H]3CCN(CCCF)C3)cn2)N1CC(F)(F)F
6. C[C@@H]1Cc2c(ccc3[nH]ccc23)[C@@H](c2ccc(NC3CN(CCCF)C3)cn2)N1CC(F)(F)F

Response:
94%
99%
97%
98%
87%
98%
